Give AC50 for every item shown.
# Tested on: CCRF-CEM
# test.summary: viability reduction measured by resazurin – cell-based, Alamar Blue fluorescence, multiple timepoints, mechanism study for HRAS target identification project, profiling panel (AID 652144)
# condition.info: Cancer/normal cell panel viability, 8-48 h
Results filed as inconclusive are left out.

Please review the following examples before continuing.
C#CCCCC(=O)NCCOCCOCCOc1ccc(N(C(=O)CCl)C(C(=O)NCCc2ccccc2)c2cccs2)cc1Cl (stereo not given); 0.997 µM
CC(C)(C)OC(=O)NCCOCCOCCOc1ccc(N(C(=O)CCl)C(C(=O)NCCc2ccccc2)c2cccs2)cc1Cl (stereo not given); 0.0865 µM

Please go through the list and note AC50 for each compound.
1. COC(=O)c1ccc([C@@H]2c3[nH]c4ccccc4c3C[C@@H](C(=O)OC)N2C(=O)CCl)cc1
2. Cc1onc(C(=O)N2CCN(C(c3ccc(Cl)cc3)c3ccc(Cl)cc3)CC2)c1[N+](=O)[O-]
3. COc1ccc(N(C(=O)CCl)C(C(=O)NCCc2ccccc2)c2cccs2)cc1Cl (stereo not given)

0.0502 µM
0.144 µM
0.0785 µM

###

# System: U-251
# test.summary: viability reduction measured by resazurin – cell-based, Alamar Blue fluorescence, multiple timepoints, mechanism study for HRAS target identification project, profiling panel (AID 652144)
# condition.info: Cancer/normal cell panel viability, 8-48 h
Results filed as inconclusive are left out. The source made the active and inactive calls. The rule behind the calls is not given here.
Mark one answer only. Choices: active, inactive

# example entries with known answers
C#CCCCC(=O)NCCOCCOCCOc1ccc(N(C(=O)CCl)C(C(=O)NCCc2ccccc2)c2cccs2)cc1Cl (stereo not given); active
COc1ccc(N(C(=O)CCl)C(C(=O)NCCc2ccccc2)c2cccs2)cc1Cl (stereo not given); active

How did this test come out for CC(C)(C)OC(=O)NCCOCCOCCOc1ccc(N(C(=O)CCl)C(C(=O)NCCc2ccccc2)c2cccs2)cc1Cl (stereo not given) ?
active

Let us now turn to Cc1onc(C(=O)N2CCN(C(c3ccc(Cl)cc3)c3ccc(Cl)cc3)CC2)c1[N+](=O)[O-]
inactive

Let us now turn to COC(=O)c1ccc([C@@H]2c3[nH]c4ccccc4c3C[C@@H](C(=O)OC)N2C(=O)CCl)cc1
active

###

# Tested on: SR
# test.summary: viability reduction measured by resazurin – cell-based, Alamar Blue fluorescence, multiple timepoints, mechanism study for HRAS target identification project, profiling panel (AID 652144)
# condition.info: Cancer/normal cell panel viability, 8-48 h
Results filed as inconclusive are left out.
Give AC50 for every item shown.

CC(C)(C)OC(=O)NCCOCCOCCOc1ccc(N(C(=O)CCl)C(C(=O)NCCc2ccccc2)c2cccs2)cc1Cl (stereo not given); 95.1 nM

Please go through the list and note AC50 for each compound.
1. Cc1onc(C(=O)N2CCN(C(c3ccc(Cl)cc3)c3ccc(Cl)cc3)CC2)c1[N+](=O)[O-]
2. C#CCCCC(=O)NCCOCCOCCOc1ccc(N(C(=O)CCl)C(C(=O)NCCc2ccccc2)c2cccs2)cc1Cl (stereo not given)

["142 nM", "885 nM"]

Please go through the list and note AC50 for each compound.
1. COc1ccc(N(C(=O)CCl)C(C(=O)NCCc2ccccc2)c2cccs2)cc1Cl (stereo not given)
2. COC(=O)c1ccc([C@@H]2c3[nH]c4ccccc4c3C[C@@H](C(=O)OC)N2C(=O)CCl)cc1

61.8 nM
32.9 nM
